Parameter EC50: see the listing below.
target: Sa-ClpP (Staphylococcus aureus, UniProt Q2G036); construct: made in house; host or cells: E. coli BL21(DE3); experiment: Sa-ClpP casein-BODIPY ClpP activation assay, method variant not marked in Table 5; format: biochemical, S. aureus
Sequence (Q2G036 whole entry): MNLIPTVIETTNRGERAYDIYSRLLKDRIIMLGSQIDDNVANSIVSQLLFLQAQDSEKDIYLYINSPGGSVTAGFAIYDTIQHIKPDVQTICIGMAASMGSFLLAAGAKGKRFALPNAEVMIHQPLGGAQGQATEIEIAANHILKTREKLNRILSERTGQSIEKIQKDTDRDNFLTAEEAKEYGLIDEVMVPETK
*1 amine or outer side, *2 acyl side, *3 side chain or, on linkers, in order; H or OH if unused. Where a SMILES comes first, the peptide text is derived from it. Bridges are numbered along the chain shown (N, C = ends). [ ]: non-standard residue; d: D form. The star is where a group is joined. ξ: configuration not given here. Piperazine(2S-CO,4-Me) = CN1CCN[C@H](C(=O)O)C1; NH(1,3-benzodioxol-5-yl) = c1cc2c(cc1N*)OCO2; Phe(3,5-F2) = N[CH](Cc1cc(F)cc(F)c1)C(=O)O; X14 = O=C(C1CC(OP(=O)(O)O)CN1[*:1])[*:2]; Morpholine(3S-CO) = O=C(O)[C@@H]1COCCN1; NH(4-Cl-2-F-phenyl) = Fc1cc(Cl)ccc1N*; Pro(4R-Me) = C[C@H]1CN[C@H](C(=O)O)C1; NH(3,4-Me2-phenyl) = Cc1ccc(N*)cc1C; Hyp = O=C(O)[C@@H]1C[C@@H](O)CN1; NH(4-Et-phenyl) = CCc1ccc(N*)cc1; ξNMeThr = CNC(C(=O)O)[C@@H](C)O; aThr = C[C@H](O)[C@H](N)C(=O)O; ξPro(4ξ-Me) = CC1CNC(C(=O)O)C1; Pip = O=C(O)[CH]1CCCCN1; X1 = N#Cc1cc(N*)ccc1F; X6 = Cc1cc(C)cc(N*)c1; CO = O=C([*:1])[*:2]
Measure: EC50 (µM)

1) C[C@@H]1C[C@H]2C(=O)O[C@@H](C)[C@H](NC(=O)[C@H](Cc3cc(F)cc(F)c3)NC(=O)Nc3ccc(Cl)cc3F)C(=O)N3C[C@H](O)C[C@H]3C(=O)N3CCCC[C@H]3C(=O)N[C@@H](C)C(=O)N2C1 [Compound 329] ({NH(4-Cl-2-F-phenyl)-CO}-[Phe(3,5-F2)][aThr][Hyp][Pip]A[Pro(4R-Me)]; ester 2-C) :: 0.4
2) Cc1cc(C)cc(NC(=O)N[C@@H](Cc2cc(F)cc(F)c2)C(=O)N[C@@H]2C(=O)N3CCC[C@H]3C(=O)N3CCCC[C@H]3C(=O)N[C@@H](C)C(=O)N3C[C@H](C)C[C@H]3C(=O)O[C@H]2C)c1 [Compound 304] ({X6-CO}-[Phe(3,5-F2)][aThr]P[Pip]A[Pro(4R-Me)]; ester 2-C) :: 0.38
3) C[C@@H]1C[C@H]2C(=O)OC[C@H](NC(=O)[C@H](Cc3cc(F)cc(F)c3)NC(=O)Nc3ccc4c(c3)OCO4)C(=O)N3C[C@H](O)C[C@H]3C(=O)N3CCCCC3C(=O)N[C@@H](C)C(=O)N2C1 (stereo partly shown) :: 0.35
4) Cc1ccc(NC(=O)NC(Cc2cc(F)cc(F)c2)C(=O)NC2C(=O)N3CC(OP(=O)(O)O)CC3C(=O)N3CCCCC3C(=O)NC(C)C(=O)N3CC(C)CC3C(=O)OC2C)cc1C (stereo not shown) [Compound 192] ({NH(3,4-Me2-phenyl)-CO}-[Phe(3,5-F2)]T[X14][Pip]A[ξPro(4ξ-Me)]; ester 2-C; configuration not given here) :: 0.6
5) C[C@@H]1C[C@H]2C(=O)OC[C@H](NC(=O)[C@H](Cc3cc(F)cc(F)c3)NC(=O)Nc3ccc(Cl)cc3F)C(=O)N3CCC[C@H]3C(=O)N3CCN(C)C[C@H]3C(=O)N[C@@H](C)C(=O)N2C1 [Compound 330] ({NH(4-Cl-2-F-phenyl)-CO}-[Phe(3,5-F2)]SP[Piperazine(2S-CO,4-Me)]A[Pro(4R-Me)]; ester 2-C) :: 0.29
6) CCc1ccc(NC(=O)N[C@@H](Cc2cc(F)cc(F)c2)C(=O)N[C@@H]2C(=O)N3C[C@H](O)C[C@H]3C(=O)N3CCOC[C@H]3C(=O)N[C@@H](C)C(=O)N3C[C@H](C)C[C@H]3C(=O)O[C@H]2C)cc1 [Compound 320] ({NH(4-Et-phenyl)-CO}-[Phe(3,5-F2)][aThr][Hyp][Morpholine(3S-CO)]A[Pro(4R-Me)]; ester 2-C) :: 0.33
7) C[C@@H]1C[C@H]2C(=O)O[C@@H](C)[C@H](NC(=O)[C@H](Cc3cc(F)cc(F)c3)NC(=O)Nc3ccc4c(c3)OCO4)C(=O)N3C[C@H](O)C[C@H]3C(=O)N3CCOC[C@H]3C(=O)N[C@@H](C)C(=O)N2C1 [Compound 319] ({NH(1,3-benzodioxol-5-yl)-CO}-[Phe(3,5-F2)][aThr][Hyp][Morpholine(3S-CO)]A[Pro(4R-Me)]; ester 2-C) :: 0.45
8) C[C@@H]1C[C@H]2C(=O)O[C@@H](C)[C@H](NC(=O)[C@H](Cc3cc(F)cc(F)c3)NC(=O)Nc3ccc(Cl)cc3F)C(=O)N3C[C@H](O)C[C@H]3C(=O)N3CCOC[C@H]3C(=O)N[C@@H](C)C(=O)N2C1 [Compound 316] ({NH(4-Cl-2-F-phenyl)-CO}-[Phe(3,5-F2)][aThr][Hyp][Morpholine(3S-CO)]A[Pro(4R-Me)]; ester 2-C) :: 0.45
9) CCc1ccc(NC(=O)N[C@@H](Cc2cc(F)cc(F)c2)C(=O)N[C@@H]2C(=O)N3C[C@H](O)C[C@H]3C(=O)N3CCCC[C@H]3C(=O)N[C@@H](C)C(=O)N3C[C@H](C)C[C@H]3C(=O)O[C@H]2C)cc1 [Compound 211] ({NH(4-Et-phenyl)-CO}-[Phe(3,5-F2)][aThr][Hyp][Pip]A[Pro(4R-Me)]; ester 2-C) :: 0.5
10) C[C@@H]1C[C@H]2C(=O)OC[C@H](NC(=O)[C@H](Cc3cc(F)cc(F)c3)NC(=O)Nc3ccc4c(c3)OCO4)C(=O)N3C[C@H](O)C[C@H]3C(=O)N3CCOC[C@H]3C(=O)N[C@@H](C)C(=O)N2C1 [Compound 318] ({NH(1,3-benzodioxol-5-yl)-CO}-[Phe(3,5-F2)]S[Hyp][Morpholine(3S-CO)]A[Pro(4R-Me)]; ester 2-C) :: 0.46
11) C[C@@H]1C[C@H]2C(=O)O[C@@H](C)[C@H](NC(=O)[C@H](Cc3cc(F)cc(F)c3)NC(=O)Nc3ccc(F)c(C#N)c3)C(=O)N3CCC[C@H]3C(=O)N3CCCC[C@H]3C(=O)N[C@@H](C)C(=O)N2C1 [Compound 324] ({X1-CO}-[Phe(3,5-F2)][aThr]P[Pip]A[Pro(4R-Me)]; ester 2-C) :: 0.5
12) C[C@@H]1C[C@H]2C(=O)O[C@@H](C)[C@H](NC(=O)[C@H](Cc3cc(F)cc(F)c3)NC(=O)Nc3ccc(Cl)cc3F)C(=O)N3CCC[C@H]3C(=O)N(C)C([C@@H](C)O)C(=O)N[C@@H](C)C(=O)N2C1 (stereo partly drawn) [Compound 313] ({NH(4-Cl-2-F-phenyl)-CO}-[Phe(3,5-F2)][aThr]P[ξNMeThr]A[Pro(4R-Me)]; ester 2-C) :: 0.34
13) C[C@@H]1C[C@H]2C(=O)O[C@@H](C)[C@H](NC(=O)[C@H](Cc3cc(F)cc(F)c3)NC(=O)Nc3ccc(Cl)cc3F)C(=O)N3CCC[C@H]3C(=O)N3CCCC[C@H]3C(=O)N[C@@H](C)C(=O)N2C1 [Compound 307] ({NH(4-Cl-2-F-phenyl)-CO}-[Phe(3,5-F2)][aThr]P[Pip]A[Pro(4R-Me)]; ester 2-C) :: 0.44

FYI, the data here is from patent US10457707B2.
